- Tested on: NCI-H358 cells
- RUN_DESCRIPTION: Proliferation inhibition on NCI-H358 cell line by CTG method
- Format: cell-based, human
- CONDITION_DETAILS: Table 1; CellTiter Glo, 120 hours; class symbol; read-out: IC50 (μM): (H358)
MEASUREMENT_TYPE: IC50

Answered examples (2):
> print(dat)
                                   compound  measurement.target  result
1  C=CC(=O)N1CCN(c2nc(OC[C@@H]3CCCN3C)nc3c2COC(c2cccc4cccc(C)c24)C3)C[C@@H]1CC#N (stereo partly drawn) [Compound 4-2]      NCI-H358 cells  < 1 µM
2  C=CC(=O)N1CCN(c2nc(OC[C@@H]3CCCN3C)nc3c2COC(c2ccccc2C(F)(F)F)C3)C[C@@H]1CC#N (stereo partly drawn)      NCI-H358 cells  < 1 µM

Then there is this compound:
Give its IC50 value. Item: C=CC(=O)N1CCN(c2nc(OC[C@@H]3CCCN3C)nc3c2COC(c2cccc4cccc(C)c24)C3)C[C@@H]1CC#N (stereo partly drawn) [Compound 4-1]
< 1 µM

====

- System: A375 cells
- RUN_DESCRIPTION: Proliferation inhibition on A375 cell line by CTG method
- Assay type: cell-based
- CONDITION_DETAILS: Homo sapiens, A-375; Table 1; CellTiter Glo, 120 hours; class symbol
MEASUREMENT_TYPE: IC50

Answered examples (2):
> print(dat)
                                   compound  measurement.type  result
1  Cc1cccc2cccc(C3Cc4nc(OC[C@@H]5CCCN5C)nc(N5CCN(C(=O)/C=C/CN6CCOCC6)[C@@H](CC#N)C5)c4CO3)c12 (stereo partly drawn)              IC50  > 1 µM
2  C=C(F)C(=O)N1CCN(c2nc(OC[C@@H]3CCCN3C)nc3c2COC(c2cccc4cccc(C)c24)C3)C[C@@H]1CC#N (stereo partly drawn)              IC50  > 1 µM

Then there is this compound:
Could you share what IC50 was measured for C=CC(=O)N1CCN(c2nc(OC[C@@H]3CCCN3C)nc3c2COC(c2cccc4cccc(C)c24)C3)C[C@@H]1CC#N (stereo partly drawn) , tested on A375 cells?
> 1 µM

====

- MEASUREMENT_TARGET: CYP3A4 (Homo sapiens, UniProt P08684)
- Sequence (P08684 whole entry): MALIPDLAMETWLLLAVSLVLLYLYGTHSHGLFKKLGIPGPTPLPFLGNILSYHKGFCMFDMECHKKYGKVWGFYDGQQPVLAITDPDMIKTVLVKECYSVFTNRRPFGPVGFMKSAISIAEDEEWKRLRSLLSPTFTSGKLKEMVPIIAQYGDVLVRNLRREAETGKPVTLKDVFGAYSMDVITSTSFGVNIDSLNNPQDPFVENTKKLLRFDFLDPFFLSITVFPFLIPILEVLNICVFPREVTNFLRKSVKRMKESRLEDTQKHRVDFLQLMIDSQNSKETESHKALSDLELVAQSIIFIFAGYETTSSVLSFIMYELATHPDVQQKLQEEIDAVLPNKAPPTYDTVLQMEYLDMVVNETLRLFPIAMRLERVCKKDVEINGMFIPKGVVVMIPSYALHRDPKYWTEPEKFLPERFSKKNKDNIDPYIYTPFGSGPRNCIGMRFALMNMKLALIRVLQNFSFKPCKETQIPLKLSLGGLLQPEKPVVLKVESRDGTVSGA
- RUN_DESCRIPTION: Inhibition of metabolic enzymes in vitro, human liver microsomes, CYP3A4
- CONDITION_DETAILS: IC50 (μM) CYP3A4 (Midazolam), substrate Midazolam
IC50 listing for selected molecules.
API: value field is a number in µM; no unit string.

> print(dat)
                                   molecule  measurement.type  value.unit  quantitative.readout
1  C=CC(=O)N1CCN(c2nc(=O)n(-c3c(C)ccnc3C(C)C)c3nc(-c4c(O)cccc4F)c(F)cc23)[C@@H](C)C1 (atropisomer, axis not shown)              IC50          µM                  4.46

Then there is this molecule:
Give its IC50 value. Item: C=C(F)C(=O)N1CCN(c2nc(OC[C@@H]3CCCN3C)nc3c2CCN(c2cccc4cccc(Cl)c24)C3)C[C@@H]1CC#N
5.92

====

- Test system: A549 cells
- RUN_DESCRIPTION: Proliferation inhibition on A549 cell line by CTG method
- Format: cell-based, human
- CONDITION_DETAILS: Homo sapiens, A549, 120 h, Table 1, CellTiter Glo, number
MEASUREMENT_TYPE: IC50

Give its IC50 value. Item: C=CC(=O)N1CCN(c2nc(OC[C@@H]3CCCN3C)nc3c2COCC3)C[C@@H]1CC#N [Compound 1]
> 10 µM

====

- MEASUREMENT_TARGET: UniProt P08684
- RUN_DESCRIPTION: Inhibition of metabolic enzymes in vitro, human liver microsomes, CYP3A4
- CONDITION_DETAILS: IC50 (μM) CYP3A4 (Testosterone), substrate Testosterone
MEASUREMENT_TYPE: IC50 (µM)
API: value field is a number in µM; no unit string.

Could you share what IC50 was measured for C=C(F)C(=O)N1CCN(c2nc(OC[C@@H]3CCCN3C)nc3c2CCN(c2cccc4cccc(Cl)c24)C3)C[C@@H]1CC#N , tested on UniProt P08684?
7.85

====

- MEASUREMENT_TARGET: CYP2C19 (Homo sapiens)
- Construct: human liver microsomes and CYP enzyme-specific substrates were used; from tissue; host or cells: human liver microsomes
- Sequence (P33261 whole entry): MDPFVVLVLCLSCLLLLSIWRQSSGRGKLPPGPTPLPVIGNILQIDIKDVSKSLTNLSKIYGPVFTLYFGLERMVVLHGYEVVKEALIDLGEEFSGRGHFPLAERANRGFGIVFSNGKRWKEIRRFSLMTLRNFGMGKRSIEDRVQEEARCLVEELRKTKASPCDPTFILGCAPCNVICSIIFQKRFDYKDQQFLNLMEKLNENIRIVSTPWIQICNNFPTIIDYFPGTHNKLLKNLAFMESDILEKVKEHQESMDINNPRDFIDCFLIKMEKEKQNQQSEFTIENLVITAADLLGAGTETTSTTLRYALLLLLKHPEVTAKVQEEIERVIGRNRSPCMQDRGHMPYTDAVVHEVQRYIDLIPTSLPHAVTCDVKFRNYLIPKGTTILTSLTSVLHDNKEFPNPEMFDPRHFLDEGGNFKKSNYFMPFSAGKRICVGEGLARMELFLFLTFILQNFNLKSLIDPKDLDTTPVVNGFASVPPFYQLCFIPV
- RUN_DESCRIPTION: Inhibition of metabolic enzymes in vitro, human liver microsomes, CYP2C19
- Type: in vitro ADME
- CONDITION_DETAILS: substrate S-Mephenytoin
MEASUREMENT_TYPE: IC50

COMPOUND	IC50
C=C(F)C(=O)N1CCN(c2nc(OC[C@@H]3CCCN3C)nc3c2CCN(c2cccc4cccc(Cl)c24)C3)C[C@@H]1CC#N [MRTX849]	> 10 µM

Then there is this compound:
Give its IC50 value. Item: C=CC(=O)N1CCN(c2nc(=O)n(-c3c(C)ccnc3C(C)C)c3nc(-c4c(O)cccc4F)c(F)cc23)[C@@H](C)C1 (atropisomer, axis not shown) [AMG-510]
> 10 µM

====

IC50 listing for selected compounds.
- Tested on: NCI-H358 cells
- RUN_DESCRIPTION: Proliferation inhibition on NCI-H358 cell line by CTG method
- Type: cell-based, human
- CONDITION_DETAILS: Homo sapiens, NCI-H358, 120 h, Table 1; CellTiter Glo, 120 hours; class symbol; read-out: IC50 (μM): (H358)

Answered examples (5):
COMPOUND	IC50
C=C(F)C(=O)N1CCN(c2nc(OC[C@H]3CCCN3C)nc3c2COC(c2ccccc2C(F)(F)F)C3)C[C@@H]1CC#N (stereo partly drawn) [Compound 19-2]	< 1 µM
C=CC(=O)N1CCN(c2nc(OC[C@@H]3CCCN3C)nc3c2COC(c2cccc4cccc(C)c24)C3)C[C@@H]1CC#N (stereo partly drawn) [Compound 4]	< 1 µM
Cc1cccc2cccc(C3Cc4nc(OC[C@@H]5CCCN5C)nc(N5CCN(C(=O)/C=C/CN(C)C)[C@@H](CC#N)C5)c4CO3)c12 (stereo partly drawn) [Compound 17]	< 1 µM
C=C(F)C(=O)N1CCN(c2nc(OC[C@H]3CCCN3C)nc3c2COC(c2cccc4cccc(Cl)c24)C3)C[C@@H]1CC#N (stereo partly drawn) [Compound 32-2]	< 1 µM
C=CC(=O)N1CCN(c2nc(OC[C@@H]3CCCN3C)nc3c2COC(c2ccccc2C(F)(F)F)C3)C[C@@H]1CC#N (stereo partly drawn) [Compound 2-2]	< 1 µM

Could you share what IC50 was measured for C=CC(=O)N1CCN(c2nc(N(C)CCN(C)C)nc3c2COC(c2cccc4cccc(C)c24)C3)C[C@@H]1CC#N (stereo partly drawn) [Compound 9] , tested on NCI-H358 cells?
< 1 µM

====

- MEASUREMENT_TARGET: CYP2D6 (Homo sapiens)
- Sequence (P10635 whole entry): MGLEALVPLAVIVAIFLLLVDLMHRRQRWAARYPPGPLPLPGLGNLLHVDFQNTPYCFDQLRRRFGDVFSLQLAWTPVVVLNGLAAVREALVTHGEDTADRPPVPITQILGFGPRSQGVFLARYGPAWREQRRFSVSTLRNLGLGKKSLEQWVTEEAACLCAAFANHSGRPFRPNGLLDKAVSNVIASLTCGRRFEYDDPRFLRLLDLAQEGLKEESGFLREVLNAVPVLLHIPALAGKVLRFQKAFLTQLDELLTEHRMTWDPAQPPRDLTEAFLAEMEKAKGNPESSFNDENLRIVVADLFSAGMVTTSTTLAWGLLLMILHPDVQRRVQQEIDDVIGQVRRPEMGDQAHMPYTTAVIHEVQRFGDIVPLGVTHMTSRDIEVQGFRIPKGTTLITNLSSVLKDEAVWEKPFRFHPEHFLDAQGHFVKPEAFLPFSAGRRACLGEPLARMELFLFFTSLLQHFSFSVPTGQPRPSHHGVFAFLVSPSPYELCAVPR
pIC50: −log10 of the molar value.
MEASUREMENT_TYPE: pIC50

> print(dat)
                                   compound  measurement.type  result
1  C=C(F)C(=O)N1CCN(c2nc(OC[C@@H]3CCCN3C)nc3c2CCN(c2cccc4cccc(Cl)c24)C3)C[C@@H]1CC#N             pIC50  < 5.00

Then there is this compound:
Could you share what pIC50 was measured for C=CC(=O)N1CCN(c2nc(=O)n(-c3c(C)ccnc3C(C)C)c3nc(-c4c(O)cccc4F)c(F)cc23)[C@@H](C)C1 (atropisomer, axis not shown) , tested on CYP2D6 (Homo sapiens)?
< 5.00

====

- MEASUREMENT_TARGET: CYP1A2 (Homo sapiens, UniProt P05177)
- Construct: human liver microsomes and CYP enzyme-specific substrates were used; from tissue; host or cells: human liver microsomes
- Sequence (P05177 whole entry): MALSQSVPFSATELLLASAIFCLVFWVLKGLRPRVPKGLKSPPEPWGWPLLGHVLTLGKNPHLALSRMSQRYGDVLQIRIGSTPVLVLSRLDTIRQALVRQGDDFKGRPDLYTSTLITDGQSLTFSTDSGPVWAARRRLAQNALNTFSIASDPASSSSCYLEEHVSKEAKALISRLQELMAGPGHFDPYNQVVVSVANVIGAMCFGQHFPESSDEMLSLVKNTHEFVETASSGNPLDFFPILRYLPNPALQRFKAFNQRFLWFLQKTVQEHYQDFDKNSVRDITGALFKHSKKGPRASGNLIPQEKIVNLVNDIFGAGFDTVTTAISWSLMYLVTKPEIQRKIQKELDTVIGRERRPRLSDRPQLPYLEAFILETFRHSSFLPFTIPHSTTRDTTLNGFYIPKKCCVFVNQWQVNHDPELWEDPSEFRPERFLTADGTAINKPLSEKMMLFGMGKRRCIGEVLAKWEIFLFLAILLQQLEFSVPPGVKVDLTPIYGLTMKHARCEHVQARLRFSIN
- RUN_DESCRIPTION: Inhibition of metabolic enzymes in vitro, human liver microsomes, CYP1A2
- Assay type: in vitro ADME
- CONDITION_DETAILS: substrate Phenacetin
IC50 listing for selected compounds.

> print(dat)
                                   compound   result
1  C=CC(=O)N1CCN(c2nc(=O)n(-c3c(C)ccnc3C(C)C)c3nc(-c4c(O)cccc4F)c(F)cc23)[C@@H](C)C1 (atropisomer, axis not shown)  > 10 µM

Then there is this compound:
Give its IC50 value. Item: C=C(F)C(=O)N1CCN(c2nc(OC[C@@H]3CCCN3C)nc3c2CCN(c2cccc4cccc(Cl)c24)C3)C[C@@H]1CC#N
> 10 µM

Numbers sourced from patent US20220315598A1.
